tested on: H. pylori ATCC 43504; experiment: Effect on morphology; assay type: cell-based, Helicobacter pylori; conditions: 500 mg/L
measurementLabel: conversion to the coccoid form

>  <smilesText>
O=c1c(O)c(-c2cc(O)c(O)c(O)c2)oc2cc(O)cc(O)c12

>  <measurementLabel>
conversion to the coccoid form

>  <observedMeasurement>
15%

$$$$
>  <smilesText>
O=c1cc(-c2ccc(O)c(O)c2)oc2cc(O)cc(O)c12

>  <measurementLabel>
conversion to the coccoid form

>  <observedMeasurement>
14.7%

$$$$

// below: conversion to the coccoid form requested for another molecule
Please indicate recorded conversion to the coccoid form of O=C1C[C@@H](c2ccc(O)cc2)Oc2cc(O)cc(O)c21 measured with H. pylori ATCC 43504.
16.5%

----------
system: test strains of H. pylori; test: Broth dilution bioassay MIC/MBC, text summary over test strains; assay type: cell-based; settings: Helicobacter pylori, ATCC51932
Examples of compounds with documented MIC follow.
Your answer should be a plain number; it is taken to be in µg/mL.

>  <smilesText>
O=C(O)c1ccc(O)c(O)c1

>  <testedSystem>
test strains of H. pylori

>  <measurementLabel>
MIC

>  <endpointUnit>
µg/mL

>  <observedMeasurement>
250

$$$$
>  <smilesText>
O=c1c(O)c(-c2cc(O)c(O)c(O)c2)oc2cc(O)cc(O)c12

>  <testedSystem>
test strains of H. pylori

>  <measurementLabel>
MIC

>  <endpointUnit>
µg/mL

>  <observedMeasurement>
150

$$$$

Note down MIC recorded for O=C1C[C@@H](c2ccc(O)cc2)Oc2cc(O)cc(O)c21
100

Note down MIC recorded for O=c1cc(-c2ccc(O)c(O)c2)oc2cc(O)cc(O)c12
125

----------
biological target: H. pylori ATCC 43504 urease (Helicobacter pylori); assay: Urease inhibition, salicylate-hypochlorite method; assay type: biochemical; settings: read-out: IC50 (95% CL); urease crude, preincubation 90 min, pH 7.3
Sequence (P69996 whole entry): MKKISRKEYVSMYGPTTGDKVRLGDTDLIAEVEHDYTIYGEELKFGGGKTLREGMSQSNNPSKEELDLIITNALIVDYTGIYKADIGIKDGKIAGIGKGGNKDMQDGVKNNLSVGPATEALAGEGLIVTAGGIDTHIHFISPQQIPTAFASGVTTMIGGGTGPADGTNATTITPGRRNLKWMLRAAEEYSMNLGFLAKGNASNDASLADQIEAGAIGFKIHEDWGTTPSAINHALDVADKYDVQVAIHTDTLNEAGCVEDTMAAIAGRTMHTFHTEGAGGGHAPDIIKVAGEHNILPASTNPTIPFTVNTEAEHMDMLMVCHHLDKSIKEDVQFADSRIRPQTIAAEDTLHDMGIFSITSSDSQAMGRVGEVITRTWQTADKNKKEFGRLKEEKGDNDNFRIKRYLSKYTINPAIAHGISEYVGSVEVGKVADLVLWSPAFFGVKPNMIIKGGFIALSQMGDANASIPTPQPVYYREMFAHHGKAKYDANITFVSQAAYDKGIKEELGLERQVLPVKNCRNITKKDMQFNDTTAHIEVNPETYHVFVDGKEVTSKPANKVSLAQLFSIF
Sequence (P14916 whole entry partner): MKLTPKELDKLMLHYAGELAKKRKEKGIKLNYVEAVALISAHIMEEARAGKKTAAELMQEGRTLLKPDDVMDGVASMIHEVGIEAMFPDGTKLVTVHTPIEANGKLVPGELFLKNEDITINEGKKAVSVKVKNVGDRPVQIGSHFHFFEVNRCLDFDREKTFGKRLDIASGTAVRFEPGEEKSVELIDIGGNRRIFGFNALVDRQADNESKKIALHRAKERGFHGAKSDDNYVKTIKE
measurementLabel: IC50 (µM)
Your answer should be a plain number; it is taken to be in µM.

Please indicate recorded IC50 of NC(N)=S [thiourea, reference compound] measured with H. pylori ATCC 43504 urease (Helicobacter pylori).
573

----------
assay: Sulforhodamine cytotoxicity assay, text summary over four cell lines; assay type: cell-based; details: human
measurementLabel: CC50 at 48 h

>  <compound>
O=C(O)c1ccc(O)c(O)c1 [PCA, protocatechuic acid]

>  <measurementLabel>
CC50 at 48 h

>  <observedMeasurement>
> 200 µg/mL

$$$$

Note down CC50 at 48 h recorded for O=C1C[C@@H](c2ccc(O)cc2)Oc2cc(O)cc(O)c21 [NRG, naringenin]
46.6 to 133 µg/mL

Note down CC50 at 48 h recorded for O=c1c(O)c(-c2cc(O)c(O)c(O)c2)oc2cc(O)cc(O)c12 [MCT, myricetin]
7.61 to 76.1 µg/mL

Note down CC50 at 48 h recorded for CC[C@@]1(O)C(=O)OCc2c1cc1n(c2=O)Cc2cc3ccccc3nc2-1 [camptothecin, reference compound]
0.005 to 1.57 µg/mL

Note down CC50 at 48 h recorded for O=c1cc(-c2ccc(O)c(O)c2)oc2cc(O)cc(O)c12 [LUT, luteolin]
5.12 to 49.8 µg/mL

----------
test system: H. pylori OX.83; assay: Broth dilution bioassay MIC/MBC, OX.83; type: cell-based, Helicobacter pylori; conditions: Helicobacter pylori, OX.83, 72 h
measurementLabel: log10(MBC) (log10 of the value in µg/mL)
Transform log10 | Measure MBC | Unit µg/mL

>  <smilesText>
CC[C@H]1OC(=O)[C@H](C)[C@@H](O[C@H]2C[C@@](C)(OC)[C@@H](O)[C@H](C)O2)[C@H](C)[C@@H](O[C@@H]2O[C@H](C)C[C@H](N(C)C)[C@H]2O)[C@](C)(O)C[C@@H](C)C(=O)[C@H](C)[C@@H](O)[C@]1(C)O

>  <measurementLabel>
log10(MBC)

>  <observedMeasurement>
2.11

$$$$
>  <smilesText>
CC1(C)S[C@@H]2[C@H](NC(=O)[C@H](N)c3ccc(O)cc3)C(=O)N2[C@H]1C(=O)O

>  <measurementLabel>
log10(MBC)

>  <observedMeasurement>
-0.60

$$$$

Note down log10(MBC) recorded for O=C1C[C@@H](c2ccc(O)cc2)Oc2cc(O)cc(O)c21
3.00

Note down log10(MBC) recorded for CC[C@H]1OC(=O)[C@H](C)[C@@H](O[C@H]2C[C@@](C)(OC)[C@@H](O)[C@H](C)O2)[C@H](C)[C@@H](O[C@@H]2O[C@H](C)C[C@H](N(C)C)[C@H]2O)[C@](C)(O)C[C@@H](C)CN(C)[C@H](C)[C@@H](O)[C@]1(C)O
2.11

Note down log10(MBC) recorded for C[C@H]1COc2c(N3CCN(C)CC3)c(F)cc3c(=O)c(C(=O)O)cn1c23
0.10

----------
assay: Sulforhodamine cytotoxicity assay, MCF7; format: cell-based; conditions: human, MCF7 cells
measurementLabel: CC50 at 48 h

>  <compound>
O=C1C[C@@H](c2ccc(O)cc2)Oc2cc(O)cc(O)c21 [NRG, naringenin]

>  <CC50 at 48 h>
93.7 µg/mL

$$$$
>  <compound>
O=C(O)c1ccc(O)c(O)c1 [PCA, protocatechuic acid]

>  <CC50 at 48 h>
> 200 µg/mL

$$$$
>  <compound>
CC[C@@]1(O)C(=O)OCc2c1cc1n(c2=O)Cc2cc3ccccc3nc2-1 [camptothecin, reference compound]

>  <CC50 at 48 h>
0.005 µg/mL

$$$$

Note down CC50 at 48 h recorded for O=c1cc(-c2ccc(O)c(O)c2)oc2cc(O)cc(O)c12 [LUT, luteolin]
8.64 µg/mL

Note down CC50 at 48 h recorded for O=c1c(O)c(-c2cc(O)c(O)c(O)c2)oc2cc(O)cc(O)c12 [MCT, myricetin]
31.7 µg/mL

----------
Examples of compounds with documented pIC50 follow.
target: H. pylori ATCC 43504 urease (Helicobacter pylori); assay: Urease inhibition, salicylate-hypochlorite method; type: biochemical
Kindly note that pIC50 refers to -log10 of the concentration in mol/L and answer with the value alone.

Example results:
>  <compound>
O=C(O)c1ccc(O)c(O)c1 [PCA, protocatechuic acid]

>  <testedSystem>
H. pylori ATCC 43504 urease (Helicobacter pylori)

>  <observedMeasurement>
3.31

$$$$
>  <compound>
O=c1c(O)c(-c2cc(O)c(O)c(O)c2)oc2cc(O)cc(O)c12 [MCT, myricetin]

>  <testedSystem>
H. pylori ATCC 43504 urease (Helicobacter pylori)

>  <observedMeasurement>
4.20

$$$$
>  <compound>
O=C1C[C@@H](c2ccc(O)cc2)Oc2cc(O)cc(O)c21 [NRG, naringenin]

>  <testedSystem>
H. pylori ATCC 43504 urease (Helicobacter pylori)

>  <observedMeasurement>
3.24

$$$$

Note down pIC50 recorded for O=c1cc(-c2ccc(O)c(O)c2)oc2cc(O)cc(O)c12 [LUT, luteolin]
3.40

----------
system: H. pylori ATCC 51932; assay: Broth dilution bioassay MIC/MBC, ATCC 51932; assay type: cell-based; details: Helicobacter pylori, ATCC51932, 72 h
Could you please mark Yes for values of MBC below 1 mg/L and No for values at or above it?

Solved entries (count: 4):
>  <smilesText>
O=C(O)c1ccc(O)c(O)c1

>  <groupLabel>
No

$$$$
>  <smilesText>
CC[C@H]1OC(=O)[C@H](C)[C@@H](O[C@H]2C[C@@](C)(OC)[C@@H](O)[C@H](C)O2)[C@H](C)[C@@H](O[C@@H]2O[C@H](C)C[C@H](N(C)C)[C@H]2O)[C@](C)(O)C[C@@H](C)C(=O)[C@H](C)[C@@H](O)[C@]1(C)O

>  <groupLabel>
Yes

$$$$
>  <smilesText>
Cc1ncc([N+](=O)[O-])n1CCO

>  <groupLabel>
No

$$$$
>  <smilesText>
CC1(C)S[C@@H]2[C@H](NC(=O)[C@H](N)c3ccc(O)cc3)C(=O)N2[C@H]1C(=O)O

>  <groupLabel>
Yes

$$$$

Please check: MBC for O=C1C[C@@H](c2ccc(O)cc2)Oc2cc(O)cc(O)c21 , strictly under 1 mg/L or not?
No

----------
Examples of compounds with documented MBC follow.
tested on: H. pylori OX.83; test: Broth dilution bioassay MIC/MBC, OX.83; type: cell-based, Helicobacter pylori; conditions: Helicobacter pylori, OX.83, 72 h
Your answer should be a plain number; it is taken to be in µg/mL.

Example results:
>  <compound>
Cc1ncc([N+](=O)[O-])n1CCO [metronidazole]

>  <MBC (µg/mL)>
2

$$$$
>  <compound>
O=c1c(O)c(-c2cc(O)c(O)c(O)c2)oc2cc(O)cc(O)c12 [MCT, myricetin]

>  <MBC (µg/mL)>
1250

$$$$
>  <compound>
O=C(O)c1ccc(O)c(O)c1 [PCA, protocatechuic acid]

>  <MBC (µg/mL)>
1500

$$$$

// below: MBC requested for another compound
Note down MBC recorded for O=c1cc(-c2ccc(O)c(O)c2)oc2cc(O)cc(O)c12 [LUT, luteolin]
1250
